- TARGET ENTITY: human CYP11B1 (Homo sapiens, UniProt P15538)
- Construct: expressed in transfected cells
- Sequence (P15538 25-503): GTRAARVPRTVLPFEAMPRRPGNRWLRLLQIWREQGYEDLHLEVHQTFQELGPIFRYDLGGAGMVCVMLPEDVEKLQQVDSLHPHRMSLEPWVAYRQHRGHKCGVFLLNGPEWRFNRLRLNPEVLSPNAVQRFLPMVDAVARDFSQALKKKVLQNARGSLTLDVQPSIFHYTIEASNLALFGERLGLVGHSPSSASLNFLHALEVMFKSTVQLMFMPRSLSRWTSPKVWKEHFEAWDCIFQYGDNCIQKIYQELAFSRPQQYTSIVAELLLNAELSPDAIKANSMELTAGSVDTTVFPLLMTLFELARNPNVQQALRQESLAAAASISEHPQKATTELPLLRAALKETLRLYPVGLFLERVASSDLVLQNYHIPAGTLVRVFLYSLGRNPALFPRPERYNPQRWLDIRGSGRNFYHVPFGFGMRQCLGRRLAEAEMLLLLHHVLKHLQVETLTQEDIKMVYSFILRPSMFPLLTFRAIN
- ASSAY DETAILS: Inhibition of hCYP11B1 in transfected V79 cells
- Assay type: cell-based
- CONDITION DETAILS: hamster V79 cells expressing human CYP11B1; substrate 11-deoxycortisol 200 nM
IC50 less than 0.3 µM is true; IC50 greater than or equal to 0.3 µM is false.

INSERT INTO results (compound, category) VALUES
  ('COc1ccc(CN2CC(C(=O)N3CCOc4c(-c5ccc(C#N)cc5)cncc43)C2)cc1 [O83]', 'true'),
  ('N#CN1CC(S(=O)(=O)N2CCSc3c(-c4cc5cc(Cl)ccc5o4)cncc32)C1 [S64]', 'false'),
  ('COc1cccc(C(=O)N2CCOc3c(-c4ccc(C#N)cc4)cncc32)c1 [O23]', 'false'),
  ('N#Cc1ccc(-c2cncc3c2OCCN3C(=O)C2CN(Cc3cccc(F)c3)C2)cc1 [O78]', 'true'),
  ('N#Cc1ccc(-c2cncc3c2OCCN3S(=O)(=O)c2cccc3cccnc23)cc1 [O15]', 'true'),
  ('N#Cc1ccc(-c2cncc3c2OCCN3S(=O)(=O)C2CC(c3ccccc3)=NO2)cc1 (stereo not drawn) [O102]', 'true'),
  ('COc1ccc(C(=O)N2CC(S(=O)(=O)N3CCOc4c(-c5ccc(C#N)cc5)cncc43)C2)cc1 [O113]', 'true'),
  ('N#Cc1ccc(-c2cncc3c2OCCN3C(=O)C2CN(C(=O)c3cccc(F)c3)C2)cc1 [O58]', 'true'),
  ('O=S(=O)(C1CC2(COC2)C1)N1CCSc2c(-c3cc4cc(Cl)ccc4o3)cncc21 [S66]', 'false'),
  ('N#Cc1ccc(-c2cncc3c2ccn3S(=O)(=O)c2ccc(C#N)cc2)cc1 [E14]', 'true'),
  ('N#Cc1ccc(-c2cncc3c2CCN3C(=O)Cc2ccc(C(F)(F)F)cc2)cc1 [C75]', 'true'),
  ('N#Cc1ccc(S(=O)(=O)N2CCOc3c(-c4cc5cc(C#N)ccc5o4)cncc32)cc1 [O129]', 'true'),
  ('N#Cc1ccc(-c2cncc3c2CCN3C(=O)c2ccccc2C(F)(F)F)cc1 [C32]', 'true'),
  ('N#Cc1ccc(-c2cncc3c2SCCN3S(=O)(=O)C2CN(C(=O)c3ccc(F)cc3)C2)cc1 [S68]', 'true'),
  ('CCC(=O)N[C@@H]1CCCc2c(-c3ccc4c(c3)CCC(=O)N4C)cncc21 [Baxdrostat, reference compound]', 'false'),
  ('O=C(c1ccccc1F)N1CCc2c(-c3ccc(Cl)cc3)cncc21 [C54]', 'false'),
  ('N#Cc1ccc(-c2cncc3c2SCCN3S(=O)(=O)c2cccc3cccnc23)cc1 [S26]', 'true'),
  ('N#Cc1ccc(-c2cncc3c2SCCN3S(=O)(=O)C2CN(C(=O)c3cccc(C#N)c3)C2)cc1 [S71]', 'false');

====

- TARGET ENTITY: human CYP11B2 (Homo sapiens, UniProt P19099)
- Sequence (P19099 25-503): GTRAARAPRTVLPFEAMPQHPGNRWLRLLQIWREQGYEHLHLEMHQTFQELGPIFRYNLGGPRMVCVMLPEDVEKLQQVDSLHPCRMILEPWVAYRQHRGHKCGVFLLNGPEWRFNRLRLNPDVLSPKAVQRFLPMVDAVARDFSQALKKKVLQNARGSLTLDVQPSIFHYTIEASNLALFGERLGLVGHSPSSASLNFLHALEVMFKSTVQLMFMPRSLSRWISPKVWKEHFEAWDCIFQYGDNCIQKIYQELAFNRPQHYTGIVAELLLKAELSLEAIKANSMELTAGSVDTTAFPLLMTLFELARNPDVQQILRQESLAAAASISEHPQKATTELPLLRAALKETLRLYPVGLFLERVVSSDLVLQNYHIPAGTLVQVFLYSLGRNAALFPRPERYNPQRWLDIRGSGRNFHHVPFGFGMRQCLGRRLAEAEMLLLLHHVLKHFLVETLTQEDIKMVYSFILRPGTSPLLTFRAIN
- ASSAY DETAILS: Inhibition of hCYP11B2 in transfected V79 cells
- CONDITION DETAILS: hamster V79 cells expressing human CYP11B2; substrate 11-deoxycorticosterone 200 nM
This section presents compounds with their documented IC50 values.
MEASUREMENT LABEL: IC50 (nM)

INSERT INTO assay_data (compound, measurement_label, recorded_value) VALUES
  ('N#Cc1ccc(-c2cncc3c2OCCN3S(=O)(=O)C2CN(S(=O)(=O)c3ccc(C#N)cc3)C2)cc1 [O114]', 'IC50', 7),
  ('N#Cc1ccc(-c2cncc3c2ccn3S(=O)(=O)c2ccc(F)cc2)cc1 [E6]', 'IC50', 0.13),
  ('O=S(=O)(c1ccc(Cl)s1)N1CCSc2c(-c3cc4cc(Cl)ccc4o3)cncc21 [S60]', 'IC50', 0.7),
  ('N#Cc1ccc(S(=O)(=O)N2CCSc3c(-c4cc5ccccc5o4)cncc32)cc1 [S40]', 'IC50', 6.7),
  ('N#Cc1ccc(-c2cncc3c2SCCN3S(=O)(=O)c2cccnc2)cc1 [S25]', 'IC50', 0.04);

These data points were gathered from patent US20260092074A1.
